Where these numbers come from: PubChem BioAssay (NCI)

Tested on: 786-0 renal
Test: NCI-60 one-dose screen, 48 h (100 = growth as untreated, 0 = no growth, -100 = all killed)
Conditions: 10 µM
The panel holds about 83,000 compounds, 20% with a hit somewhere; the sample as a whole holds those more often.
Answer each item with its documented growth.
Give bare numbers, in %.

1. CCN(CC)CCOc1cccc2c1C(=O)c1ccccc1C2=O | 93.1

Required: growth, one value per molecule below.
1. O=C(CCCCNC(=O)c1nc(-c2ccccc2)n(-c2ccccc2)n1)NO
2. COc1cc(-c2nc3ccccc3o2)cc(CN2CCCCC2)c1O
3. COc1ccc(-c2cc(-c3ccc(Cl)cc3)nc(SCCCCCCC(=O)NO)n2)cc1OC
4. COc1ccc(-c2nn(-c3cccc(Cl)c3)cc2-c2c(C#N)c(N)n(N)c(=O)c2C#N)cc1
5. COc1cc2c3c(n(C4CCNCC4)c(=O)c2cc1OC)-c1cc2c(cc1C3=O)OCO2
6. CC(C1=C(CN(C(=O)Cc2cn(-c3ccccc3)nc2-c2ccc(Cl)cc2)C(C)C)Cc2ccccc21)c1ccccn1 (stereo not drawn)

Data returned:
92
94.7
51.3
84.2
-60
68.2

Fill in growth for each of the 3 molecules listed.
1. COc1ccc(NC(=O)C2CC3C=CC2C3)c([N+](=O)[O-])c1 (stereo not drawn)
2. COc1cc(N)c2ncccc2c1SC
3. CC(C)(C)c1ccc(S(=O)(=O)N[C@H]2CC[C@H]3[C@@H]4CCc5cc(O)ccc5[C@H]4CC[C@]23C)cc1

Data returned:
[123, 116, 49.6]

List the reported growth of each molecule below.
1. O=C(NCCNC(=O)c1ccc(F)cc1)Nc1ccc(-n2cc(-c3ccncc3)c(-c3ccc(Cl)c(O)c3)n2)cc1
2. COc1cc(-c2nn(-c3cccc(NC(=O)CCN4CCN(c5ccccc5)CC4)c3)cc2-c2ccncc2)ccc1Cl
3. C[C@@H](O)[C@H]1C(=O)N2C(C(=O)O)=C(SCCN=CN)C[C@H]12

Data returned:
[-11.1, 2.45, 8.8]

----------
Tested on: A549/ATCC NSCLC
Experiment: NCI-60 one-dose screen, 48 h (100 = growth as untreated, 0 = no growth, -100 = all killed)
Conditions: 10 µM
The panel holds about 83,000 compounds, 20% with a hit somewhere; the sample as a whole holds those more often.
API: label(entry) gives T if the entry's growth is strictly smaller than 70%; on equality or larger values it gives F.

These solved cases illustrate the format of a correct answer.
1. O=C(O)Cc1ccc(O)c(O)c1 | F
2. CCCc1nc(C(C)(C)O)c(C(=O)O)n1Cc1ccc(-c2ccccc2-c2nn[nH]n2)cc1 | F
3. C1CN(CC2CCC(CN3CCOCC3)O2)CCO1 (stereo not drawn) | F

Data request: Find out if reported growth for "C[n+]1c2ccccc2nc2ccccc21" is less than 70%
Data returned: T

Data request: Then this compound: CCCC1(CN2c3ccccc3Sc3ccc(Cl)cc32)CCN(CC)C1 (stereo not drawn)
Data returned: T

Data request: Field entry: "Cc1c[nH]c(=O)n(Cc2nnc(CCC(=O)c3nc4ccccc4[nH]3)o2)c1=O"
Data returned: T

----------
Test system: DU-145 prostate
Assay: NCI-60 one-dose screen, 48 h (100 = growth as untreated, 0 = no growth, -100 = all killed)
Settings: 10 µM
About 83,000 compounds went through this panel and 20% of them were active in at least one assay; those are over-represented in the sample as a whole.
Kindly apply the following: Met if growth is less than 80%, Not met in every other case.

Here are 3 molecules together with their reported answers.
1) CNC(=O)c1cc(Oc2ccc3c(c2)sc2nc(-c4ccc(NC(=O)Nc5ccc(Cl)c(C(F)(F)F)c5)cc4)cn23)ccn1 | Met
2) O=C(Nc1cc(Cl)cc2c1-c1ccc(Cl)cc1C2O)C(Cl)Cl (stereo not drawn) | Met
3) CC(=O)C1CCC2C3CC=C4CC(SC(=N)N)CCC4(C)C3CCC12C (stereo not drawn) | Met

Data request: Quick check: does O=C1CC(SC(=S)C2CCCC2=O)C(=O)N1 (stereo not drawn) have growth under 80%?
Data returned: Not met

Data request: Another molecule to look at: Cc1cc(CC(C)CC(C)(C)C)n(O)c(=O)c1 (stereo not drawn) (tested in a mixture with another compound)
Data returned: Met

Data request: How about this molecule: "COc1ccc(/C(C#N)=C/c2ccccc2OC)cc1"
Data returned: Met

Data request: Follow-up item: "Cc1cn(-c2cc(F)cc(NC(=O)c3ccc(C)c(Nc4nccc(-c5cccnc5)n4)c3)c2)cn1"
Data returned: Met

Data request: Now give it for "COc1cc(-c2csc(NC(=O)Nc3ccc(Cl)c(C(F)(F)F)c3)n2)cc(OC)c1OC" too.
Data returned: Met

Data request: C#CC(C)(O)[C@@H]1C[C@H](CC(=O)O)C1(C)C (stereo partly drawn) , same question.
Data returned: Not met

Data request: Follow-up item: "CCOC(=O)c1sc2ncnc(Nc3ccc4c(cnn4C(=O)Nc4ccc(C)c(Cl)c4)c3)c2c1C"
Data returned: Not met

Data request: Another molecule: "Cc1ccc(C(=O)/C=C/c2ccccc2)s1"
Data returned: Not met

Data request: Now give it for "CCc1ccc(C2=NN(c3ccc(S(C)(=O)=O)cc3)C(=O)CC2)cc1" too.
Data returned: Met

Data request: What would you report for "C=CCSC(CC)(CC)C(=O)NC" ?
Data returned: Not met
